TEST SUMMARY: drug combination toxicity in non-malignant astrocytes – cell-based, BGB or cisplatin IC20 combos, cytotoxicity control for chromothriptic childhood tumor combination screen (AID 1671460);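 also: cells exposed to compounds for 96 hours before viability readout; 0% = vehicle and 100% = killing control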
MEASUREMENT SETUP: Human astrocytes, viability inhibition, drug combinations; measured here: combo with cisplatin IC20; at 0.5 µM; stronger effect = higher value
Assign inhibition to each entry below.
Numbers only, in %.

> print(dat)
                            smiles  numeric.value
1                         NC(=O)NO           5.32
2  Cc1ccnc2c1NC(=O)c1cccnc1N2C1CC1           4.46
3             O=NN(CCCl)C(=O)NCCCl           2.42

For every item in the list below, what is its measured inhibition?
1. Cc1oncc1C(=O)Nc1ccc(C(F)(F)F)cc1
2. CCN1CCN(c2cc3c(cc2F)c(=O)c(C(=O)O)cn3C2CC2)CC1

Result:
1. 28.3
2. -14.1

For every item in the list below, what is its measured inhibition?
1. C[C@H]1COc2c(C3(N)CC3)c(F)cc3c(=O)c(C(=O)O)cn1c23
2. O=C(O)P(=O)(O)O
3. CN(C)c1ccc(C(=C2C=CC(=[N+](C)C)C=C2)c2ccc(N(C)C)cc2)cc1
4. O=C(O)CCCCCCCC(=O)O
5. Nc1nc(=S)c2[nH]cnc2[nH]1
6. Nc1[nH]c(=O)ncc1F

Result:
[-0.547, -8.98, 54.6, -20, 8.25, -15.3]
